We begin with a simple list: items and their reported IC50.
- Measurement Target: CYP2D6 (Homo sapiens)
- Test Description: CYP2D6 inhibition assay (bufuralol, pooled human liver microsomes)
- Particulars: 2D6 IC50 (uM), CYP enzyme inhibition

Structure Smiles String	IC50
CO[C@H](C)C(=O)N[C@@H](Cc1ccc2c(c1)OCO2)[C@H](O)CN[C@H]1CC2(CCC2)Oc2ncc(CC(F)(F)F)cc21	7.4 µM
COCC(=O)N[C@@H](Cc1ccc(F)cc1)[C@H](O)CN[C@H]1CC2(CCC2)Oc2ncc(CC(C)(C)C#N)cc21	≥ 27 µM
CO[C@H](C)C(=O)N[C@@H](Cc1ccccc1)[C@H](O)CN[C@H]1CC2(CCC2)Oc2c1cc(CC(C)C)cc2-n1ccnc1	4.4 µM
COCC(=O)N[C@@H](Cc1cc(F)cc(F)c1)[C@H](O)CN[C@H]1CC2(CCC2)Oc2c1cc(CC(C)(C)C)nc2-c1ccncc1	1.3 µM
COCC(=O)N[C@@H](Cc1cc(F)cc(-c2nccs2)c1)[C@H](O)CN[C@H]1CC2(CCC2)Oc2cnc(CC(C)(C)C)cc21	0.4 µM
CC(=O)N[C@@H](Cc1ccc(F)cc1)[C@H](O)CN[C@H]1CC2(CCC2)Oc2c1cc(CC(C)(C)C)nc2NC1CCC1	2.6 µM

###

- Test Description: Microsomal stability assay, rat liver microsomes;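 also: rat liver microsomes (0.25 mg/mL) with about 1 µM compound plus 1 mM NADPH, pH 7.4, 37 °C for 30 min, parent left measured by LC-MS/MS against 0 min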
- Particulars: rat liver microsomes
Reported Metric: RLM (µL/min/mg)

Molecule	Numeric Readout
COCC(=O)N[C@@H](Cc1cc(F)cc(-c2nccs2)c1)[C@H](O)CN[C@H]1CC2(CCC2)Oc2ncc(C3CC3)cc21 [compound 749]	51
CO[C@H](C)C(=O)N[C@@H](Cc1cc(F)cc(Cl)c1)[C@H](O)CN[C@H]1CC2(CCC2)Oc2cnc(CC(C)(C)F)cc21 [compound 719]	775
CNc1nc(CC(C)(C)C)cc2c1OC1(CCC1)C[C@@H]2NC[C@@H](O)[C@H](Cc1ccc(F)c(-c2nccs2)c1)NC(=O)COC [compound 716]	190
Cc1cccc(CN2CCO[C@@H](C(=O)N[C@@H](Cc3ccc(F)cc3)[C@H](O)CN[C@H]3CC4(CCC4)Oc4ncc(CC(C)(C)C)cc43)C2)c1 [compound 685]	283
CCC(=O)N[C@@H](Cc1ccc2c(c1)OCO2)[C@H](O)CN[C@H]1CC2(CCC2)Oc2ncc(CC(C)C)cc21 [compound 726]	173
Cc1cccc(CN2CCO[C@H](C(=O)N[C@@H](Cc3ccc(F)cc3)[C@H](O)CN[C@H]3CC4(CCC4)Oc4ncc(CC(C)(C)C)cc43)C2)c1 [compound 691]	426

###

- Measurement Target: CYP2D6 (Homo sapiens, UniProt P10635)
- Sequence (P10635 whole entry): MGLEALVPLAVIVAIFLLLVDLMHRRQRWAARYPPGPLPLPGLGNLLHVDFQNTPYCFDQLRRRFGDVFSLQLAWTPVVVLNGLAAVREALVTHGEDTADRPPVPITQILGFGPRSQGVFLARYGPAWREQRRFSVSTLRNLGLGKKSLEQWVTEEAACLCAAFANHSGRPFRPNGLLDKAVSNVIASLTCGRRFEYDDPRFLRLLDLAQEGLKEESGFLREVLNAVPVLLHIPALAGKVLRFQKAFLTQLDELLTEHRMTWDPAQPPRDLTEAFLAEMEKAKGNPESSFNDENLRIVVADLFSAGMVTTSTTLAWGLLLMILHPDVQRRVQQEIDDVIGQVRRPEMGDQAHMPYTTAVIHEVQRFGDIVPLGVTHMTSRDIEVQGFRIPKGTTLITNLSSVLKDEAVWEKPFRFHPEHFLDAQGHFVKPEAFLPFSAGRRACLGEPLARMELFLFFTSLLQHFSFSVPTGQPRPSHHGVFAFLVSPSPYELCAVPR
- Test Description: CYP2D6 inhibition assay (bufuralol, pooled human liver microsomes)
- Particulars: 2D6 IC50, CYP2D6 inhibition
Mark each entry Y if its IC50 sits below 4000 nM, and N for all others.

Compound	Cat
CC(=O)N[C@@H](Cc1cccc(F)c1)[C@H](O)CN[C@H]1CC2(CCC2)Oc2c(-c3ccncc3)cc(Cl)cc21 [compound 595]	Y
CC(=O)N[C@@H](Cc1cccc(F)c1)[C@H](O)CN[C@H]1CC2(CCC2)Oc2c(-c3ccncc3)cc(CC(C)(C)C)cc21 [compound 592]	Y
CC(=O)N[C@@H](Cc1cc2c(c(-c3ccncc3)c1)OCO2)[C@H](O)CN[C@H]1CC2(CCC2)Oc2ncc(CC(C)(C)C)cc21 [compound 645]	Y
COCC(=O)N[C@@H](Cc1cccc(F)c1)[C@H](O)CN[C@H]1CC2(CCC2)Oc2c(-c3ccncc3)cc(CC(C)C)cc21 [compound 607]	Y
COCC(=O)N[C@@H](Cc1cc(F)cc(F)c1)[C@H](O)CN[C@H]1CC2(CCC2)Oc2c1cc(CC(C)C)nc2Cl [compound 667]	N
CO[C@H](C)C(=O)N[C@@H](Cc1ccc2c(c1)OCO2)[C@H](O)CN[C@H]1CC2(CCC2)Oc2ncc([C@@H]3CC3(C)C)cc21 [Example 578]	Y
CC(=O)N[C@@H](Cc1ccc(F)c(-c2ccncc2)c1)[C@H](O)CN[C@H]1CC2(CCC2)Oc2ccc(CC(C)(C)C)cc21 [compound 625]	Y
CO[C@H](C)C(=O)N[C@@H](Cc1ccc2c(c1)OCO2)[C@H](O)CN[C@H]1CC2(CCC2)Oc2ncc([C@H]3CC3(C)C)cc21 [compound 580]	N
COCC(=O)N[C@@H](Cc1cccc(F)c1)[C@H](O)CN[C@H]1CC2(CCC2)Oc2c(-c3ccnc(Cl)c3)cc(CC(C)(C)C)cc21 [compound 639]	Y
CO[C@H](C)C(=O)N[C@@H](Cc1cccc(C#N)c1)[C@H](O)CN[C@H]1CC2(CCC2)Oc2c(-c3ccncc3)cc(CC(C)(C)C)cc21 [Example 638]	Y
CO[C@H](C)C(=O)N[C@@H](Cc1ccc2c(c1)OCO2)[C@H](O)CN[C@H]1CC2(CCC2)C(=O)c2ncc(CC(C)(C)C)cc21 [compound 626]	N
CC(=O)N[C@@H](Cc1cc(F)cc(-c2ccncc2)c1)[C@H](O)CN[C@H]1CC2(CCC2)Oc2ccc(CC(C)(C)C)cc21 [Example 433]	Y
COCC(=O)N[C@@H](Cc1ccc2c(c1)OCO2)[C@H](O)CN[C@H]1CC2(CCC2)Oc2cnc(CC(C)C)cc21 [compound 664]	Y
CC(=O)N[C@@H](Cc1ccc(F)cc1)[C@H](O)CN[C@H]1CC2(CCC2)Oc2c1cc(CC(C)(C)C)nc2Nc1ccccc1 [compound 610]	N
CC(=O)N[C@@H](Cc1cc(F)cc(F)c1)[C@H](O)CN[C@H]1CC2(CCC2)Oc2c1cc(CC(C)(C)C)nc2-c1ccncc1 [compound 584]	N
CO[C@H](C)C(=O)N[C@@H](Cc1ccc(O)c(O)c1)[C@H](O)CN[C@H]1CC2(CCC2)Oc2ncc(CC(C)(C)C)cc21 [compound 651]	N
CC(=O)N[C@@H](Cc1cc(F)cc(F)c1)[C@H](O)CN[C@H]1CC2(CCC2)Oc2ncc(C(F)(F)C(C)(C)C)cc21 [compound 627]	N
CO[C@H](C)C(=O)N[C@@H](Cc1cccc(F)c1)[C@H](O)CN[C@H]1CC2(CCC2)Oc2c(-c3ccncc3)cc(CC(C)(C)C)cc21 [compound 585]	Y

###

- Measurement Target: Beta Secretase enzyme (BACE) (Homo sapiens)
- Sequence (P56817 46-501): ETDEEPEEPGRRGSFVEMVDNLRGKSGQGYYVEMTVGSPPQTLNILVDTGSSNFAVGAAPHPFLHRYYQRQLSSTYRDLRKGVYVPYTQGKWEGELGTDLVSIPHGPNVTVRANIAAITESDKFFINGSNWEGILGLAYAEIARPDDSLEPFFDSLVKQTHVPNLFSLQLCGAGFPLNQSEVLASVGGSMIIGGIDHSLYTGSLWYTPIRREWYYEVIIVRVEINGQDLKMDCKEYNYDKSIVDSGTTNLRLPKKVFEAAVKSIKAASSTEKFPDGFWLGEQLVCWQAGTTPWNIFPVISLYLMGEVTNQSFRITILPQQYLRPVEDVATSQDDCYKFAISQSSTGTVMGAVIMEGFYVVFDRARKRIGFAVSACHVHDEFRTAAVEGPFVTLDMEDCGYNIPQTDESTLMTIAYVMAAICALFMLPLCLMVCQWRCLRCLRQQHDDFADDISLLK
- Test Description: In vitro enzymatic BACE FRET (fluorescence resonance energy transfer) assay;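 also: fluorescence read after 1 h with 50 nM quenched peptide substrate spanning the BACE cleavage site, in pH 4.2 acetate buffer containing 10% DMSO and nonionic detergent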
- Format: biochemical
- Particulars: Table 2; read-out: BACE1 FRET assay
Reported Metric: IC50 (nM)

Structure Smiles String	Readout Unit	Numeric Readout
COCC(=O)N[C@@H](Cc1ccc2c(c1)OCO2)[C@H](O)CN[C@H]1CC2(CCC2)Oc2nc(F)c(CC(C)(C)C)cc21	nM	120
COCC(=O)N[C@@H](Cc1cc(F)cc(F)c1)[C@H](O)CN[C@H]1CC2(CCC2)Oc2c1cc(CC(C)(C)C)cc2-n1ccnc1	nM	18
C[C@@H](O)C(=O)N[C@@H](Cc1ccc(F)cc1)[C@H](O)CN[C@H]1CC2(CCC2)Oc2ncc(CC(C)(C)C)cc21	nM	13

###

- Measurement Target: CYP3A4 (CYP3A) (Homo sapiens, UniProt P08684);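 also: inhibition of CYP3A-mediated 1-hydroxymidazolam formation after 10 min incubation with NADPH, quantified by HPLC MS relative to metabolite produced without test compound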
- Sequence (P08684 2-503): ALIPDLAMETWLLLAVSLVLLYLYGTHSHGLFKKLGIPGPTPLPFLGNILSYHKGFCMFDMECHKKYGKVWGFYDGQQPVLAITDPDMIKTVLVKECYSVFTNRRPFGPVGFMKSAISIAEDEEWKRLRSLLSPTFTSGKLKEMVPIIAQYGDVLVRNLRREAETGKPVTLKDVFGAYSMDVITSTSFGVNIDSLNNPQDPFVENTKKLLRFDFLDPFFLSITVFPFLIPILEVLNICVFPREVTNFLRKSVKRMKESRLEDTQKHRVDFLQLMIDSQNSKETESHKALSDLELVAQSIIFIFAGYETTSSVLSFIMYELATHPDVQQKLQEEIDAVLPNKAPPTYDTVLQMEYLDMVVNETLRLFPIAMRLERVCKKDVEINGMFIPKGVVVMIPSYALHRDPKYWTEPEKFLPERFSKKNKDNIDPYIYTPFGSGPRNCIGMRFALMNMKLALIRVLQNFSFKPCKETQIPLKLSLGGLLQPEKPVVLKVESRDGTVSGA
- Test Description: in vitro
- Particulars: microsomes, pH 7.4

Compound	Bound Sign	IC50 (nM)
COCCC(=O)N[C@@H](Cc1cccc(-c2nccs2)c1)[C@H](O)CN[C@H]1CC2(CCC2)Oc2ncc(CC(C)(C)C)cc21	=	100
COC(OC)C(=O)N[C@@H](Cc1ccc(F)cc1)[C@H](O)CN[C@H]1CC2(CCC2)Oc2ncc(CC(C)(C)C)cc21	=	600
COCC(=O)N[C@@H](Cc1ccc(F)cc1)[C@H](O)CN[C@H]1CC2(CCNC2)Oc2cnc(CC(C)(C)C)cc21 (stereo partly drawn)	=	2900
CO[C@H](C)C(=O)N[C@@H](Cc1ccc2c(c1)OCO2)[C@H](O)CN[C@H]1CC2(CCC2)Oc2cnc(CC(C)C)cc21	≤	30
CC(=O)N[C@@H](Cc1ccc(F)c(-c2ccncc2)c1)[C@H](O)CN[C@H]1CC2(CCC2)Oc2ncc(CC(C)(C)C)cc21	=	160
CC(=O)C(C)(C)C(=O)N[C@@H](Cc1ccc2c(c1)OCO2)[C@H](O)CN[C@H]1CC2(CCC2)Oc2ncc(CC(C)(C)C)cc21	=	100

###

- Tested on: Aβ40 in conditioned medium of cells stably expressing Amyloid Precursor Protein (APP)
- Test Description: In vitro BACE cell-based assay (Aβ40 in conditioned medium, sandwich ELISA);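 also: compounds added as a dilution series, secreted peptide quantified by europium time-resolved fluorescence readout, potency fitted from percent of control versus compound concentration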
- Particulars: HEK cells, cell-based assay; read-out: HEK cell assay (IC50)
pIC50: −log10 of the molar value.

Compound	pIC50
COC(=O)C1CC2(C1)CC(NCC(O)C(Cc1ccc(F)cc1)NC(C)=O)c1cc(CC(C)(C)C)cnc1O2 (centres unmarked) [compound 258]	7.03
CC(C)(C)Cc1cnc2c(c1)[C@@H](NC[C@@H](O)[C@H](Cc1ccc3c(c1)OCO3)NC(=O)C(C)(Cl)Cl)CC1(CCC1)O2	6.11
CO[C@H](C)C(=O)N[C@@H](Cc1ccc(F)cc1)[C@H](O)CN[C@H]1C[C@]2(C[C@H](O)C2)Oc2ncc(CC(C)C)cc21	7.56
COCC(=O)NC(Cc1cccc(F)c1)C(O)CNC1CC2(CC(O)C2)Oc2cnccc21 (centres unmarked)	6.57
CC(C)(C)Cc1cnc2c(c1)[C@@H](NC[C@@H](O)[C@H](Cc1cc(F)cc(F)c1)NC(=O)CCl)CC1(CCC1)O2	7.73
COC(C)C(=O)NC(Cc1ccc2c(c1)OCO2)C(O)CNC1CC2(CC(O)C2)Oc2cnccc21 (centres unmarked)	5.48
COCC(=O)N[C@@H](Cc1cccc(F)c1)[C@H](O)CN[C@H]1C[C@]2(C[C@H](O)C2)Oc2ncc(CC(C)(C)C)cc21	8.49
COC(=O)C1CC2(C1)CC(NCC(O)C(Cc1ccc(F)cc1)NC(C)=O)c1cc(CC(C)(C)C)cnc1O2 (centres unmarked) [compound 257]	6.43
CC(C)(C)Cc1cnc2c(c1)[C@@H](NC[C@@H](O)[C@H](Cc1ccc3c(c1)OCO3)NC(=O)C(Cl)Cl)CC1(CCC1)O2	7.15
CC(C)(C)Cc1cnc2c(c1)[C@@H](NC[C@@H](O)[C@H](Cc1ccc3c(c1)OCO3)NC(=O)OCc1cncs1)CC1(CCC1)O2	5.73
COC(C)C(=O)NC(Cc1ccc2c(c1)OCO2)C(O)CNC1CC2(CC(O)C2)Oc2ccc(CC(C)(C)C)cc21 (centres unmarked) [compound 269]	6.99
COC(C)C(=O)NC(Cc1ccc2c(c1)OCO2)C(O)CNC1CC2(CC(O)C2)Oc2ccc(CC(C)(C)C)cc21 (centres unmarked) [compound 268]	7.82
COC(C)C(=O)NC(Cc1cc(F)cc(F)c1)C(O)CNC1CC2(CCC2)Oc2ncc(CC(C)(C)C)cc21 (centres unmarked) [compound 103]	7.57
COC(C)C(=O)NC(Cc1cc(F)cc(F)c1)C(O)CNC1CC2(CCC2)Oc2ncc(CC(C)(C)C)cc21 (centres unmarked) [compound 102]	7.97

Data credit: patent US8163909B2
